OBSERVABLE: pIC50
The read-out pIC50 is expressed as -log10 of concentration in moles per litre.

In: # value lookup — system Aurora kinase A (Homo sapiens), readout pIC50, item COc1ccc2c(c1)Oc1ncnc(Nc3cnc(NC(=O)c4ccccc4)nc3)c1NC2
Out: 6.22

In: # value lookup — system Aurora kinase A (Homo sapiens), readout pIC50, item COc1cccc2c1CNc1c(Nc3cnc(NC(=O)c4ccccc4)nc3)ncnc1O2
Out: 5.66

In: # value lookup — system Aurora kinase A (Homo sapiens), readout pIC50, item COc1ccc2c(c1)CNc1c(Nc3cnc(NC(=O)c4cccc(F)c4)nc3)ncnc1O2
Out: 5.96

In: # value lookup — system Aurora kinase A (Homo sapiens), readout pIC50, item COc1ccc2c(c1)Oc1ncnc(Nc3cnc(NC(=O)c4cccc(F)c4)nc3)c1NC2
Out: 6.49

In: # value lookup — system Aurora kinase A (Homo sapiens), readout pIC50, item COc1ccc2c(c1)CNc1c(Nc3cnc(NC(=O)c4ccccc4)nc3)ncnc1O2
Out: 6.01

In: # value lookup — system Aurora kinase A (Homo sapiens), readout pIC50, item COc1ccc2c(c1)Oc1ncnc(Nc3cnc(NC(=O)c4ccc(F)cc4)nc3)c1NC2
Out: 6.48

In: # value lookup — system Aurora kinase A (Homo sapiens), readout pIC50, item COc1cc2c(cc1OC)Oc1ncnc(Nc3cnc(NC(=O)c4ccc(C)cc4)nc3)c1NC2
Out: 5.92
